Source of measurements: BindingDB's records for doi:10.1111/j.1471-4159.1990.tb04946.x

pKi: −log10 of the molar value.
pKi tested on Hrh3 protein (Rattus norvegicus, UniProt Q5PPG3): recorded values
Sequence (Q5PPG3 whole entry): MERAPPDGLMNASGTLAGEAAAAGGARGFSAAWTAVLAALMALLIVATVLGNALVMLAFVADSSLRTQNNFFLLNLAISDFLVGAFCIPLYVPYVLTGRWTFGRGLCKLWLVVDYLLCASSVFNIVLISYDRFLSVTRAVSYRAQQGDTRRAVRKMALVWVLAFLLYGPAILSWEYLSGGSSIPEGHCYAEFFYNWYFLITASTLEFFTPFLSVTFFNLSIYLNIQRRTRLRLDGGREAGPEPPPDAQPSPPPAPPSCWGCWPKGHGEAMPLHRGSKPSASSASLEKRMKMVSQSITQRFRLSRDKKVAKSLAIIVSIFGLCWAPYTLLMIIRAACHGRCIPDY

Worked cases, pKi given:
# smiles-data, pKi
rows = [
    ("c1c[nH]cn1", "< 5.00"),
    ("COc1ccc(CN(CCN(C)C)c2ccccn2)cc1", "< 5.00"),
]

Okay, next one:
Query block: Query pKi for C/N=C(\S)NCCSCc1[nH]cnc1C
Result block: < 5.00
